assay: chemical genetic growth profiling, strain panel (AID 1159580);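 further: tested at 20 µM; growth read once vehicle control cultures reached saturation at 30 °C; 1 = growth at the plate median or of vehicle wells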; details: S. cerevisiae deletion strains, growth OD, locus YDL192W, strain arf1
Hit rate of the full screen: of about 5,500 compounds, about 2,000 (36%) were called active. About 18% were inconclusive and are not listed. No stated cut-off is given here; in the data, active means normalized growth mostly below about 0.91 (no sharp cut-off); inconclusive means no clear call, values can overlap the other calls; inactive means mostly above about 0.92. This is one part of the list.
Outcome codes: class 1 for active, class 0 for inactive

1) O=[N+]([O-])/N=C1/NCCN1Cc1ccc(Cl)cc1	class 0
2) COc1ccc2c(c1)[nH]c1c(C)nccc12	class 0
3) COP(=S)(OC)SCn1nnc2ccccc2c1=O	class 0
4) C[C@]12C=CC(=O)C=C1CCC1C2C(=O)C[C@@]2(C)C1CC[C@]2(O)C(=O)CO (stereo not given in full)	class 0
5) COc1cc(OC)c2c(c1Cl)OC1(C2=O)C(O)=CC(=O)CC1C (stereo not given)	class 0
6) CCCC(=O)Nc1ncnc2c1ncn2C1O[C@@H]2COP(=O)(O)O[C@H]2[C@H]1OC(=O)CCC (stereo not given in full)	class 0
7) O=c1n(CCCN2CCN(c3cccc(Cl)c3)CC2)nc2ccccn12	class 0
8) COc1cc2ccc(=O)oc2c(O)c1O	class 0
9) COC(=O)C1=CO[C@@H](O[C@@H]2O[C@H](CO)[C@@H](O)[C@H](O)[C@H]2O)[C@@H]2[C@@H](C)[C@@H](O)C[C@H]12	class 0
10) COC(=O)C[C@H]1C(C)(C)C(OC(C)=O)[C@]2(O)C=C3C4CC(=O)O[C@@H](c5ccoc5)[C@]4(C)CCC3[C@@]1(C)C2=O (stereo not given in full)	class 0
11) CN1CCN(CCCN2c3ccccc3Sc3ccc(Cl)cc32)CC1	class 1
12) COc1ccc2ccc(=O)oc2c1CC=C(C)C	class 1
13) CCCCCN=C(N)N/N=C\c1c[nH]c2ccc(OC)cc12	class 0
14) CC(C)=CCOc1c2occc2cc2ccc(=O)oc12	class 1
15) C[C@]12CCC3C(CC[C@H]4C[C@@H](O)CC[C@]34C)C1CCC2=O (stereo not given in full)	class 1
16) C=C(C)c1cc2cc(C(C)=O)c(O)cc2o1	class 1
17) Cn1c([N+](=O)[O-])cnc1COC(N)=O	class 0
18) COc1c2occc2cc2ccc(=O)oc12	class 0
19) CC1=C(C(=O)O)N2C(=O)[C@@H](NC(=O)[C@H](N)C3=CCC=CC3)C2SC1 (stereo not given in full)	class 0
20) O=C1c2ccccc2C(=O)c2c1ccc(O)c2O	class 1
21) C[C@]12CCC3C(CC[C@H]4C[C@@H](Cl)CC[C@]34C)C1CCC2=O (stereo not given in full)	class 0
22) c1coc(CNc2ncnc3nc[nH]c23)c1	class 0
23) CC(C)=CCOc1cc2oc(=O)ccc2cc1O	class 1
24) c1ccc2c(c1)[nH]c1cnccc12	class 0
25) CC(C)(O)CC[C@@H](O)[C@](C)(O)C1CC[C@@]2(O)C3=CC(=O)C4C[C@@H](O)[C@@H](O)C[C@]4(C)C3CC[C@]12C (stereo not given in full)	class 0
26) O=C1OC(=O)C2C3CCC(O3)C12 (stereo not given)	class 0
27) COc1cc(OC)c(-c2c(OC)cc(OC)cc2OC)c(OC)c1	class 0
28) CC1=C2CCC3C(CC[C@]4(C)C(=O)CCC34)[C@@]2(C)CCC1=O (stereo not given in full)	class 1
29) O=c1ccc2cc(O[C@@H]3O[C@H](CO)[C@@H](O)[C@H](O)[C@H]3O)c(O)cc2o1	class 0
30) C[N+]1(C)C2CC[C@H]1CC(OC(=O)C(O)c1ccccc1)C2 (stereo not given in full)	class 0
31) COc1cc2ccc(=O)oc2cc1O	class 0
32) Nc1ncnc2nc[nH]c12	class 1
33) COC(=O)C[C@H]1C(C)(C)[C@@H](OC(C)=O)[C@@H]2CC3C4CC(=O)O[C@@H](c5ccoc5)[C@]4(C)CCC3[C@@]1(C)C2=O (stereo not given in full)	class 0
34) CC(=O)OCC(=O)[C@@]1(O)CCC2C3CCC4=CC(=O)CC[C@]4(C)[C@@]3(F)[C@@H](O)C[C@@]21C (stereo not given in full)	class 0
35) COc1cc(OC)cc(OC)c1	class 1
36) O=C1c2ccc(O)c(O)c2C(=O)c2c(O)ccc(O)c21	class 0
37) Nc1ncnc2c1ncn2[C@@H]1O[C@H](CO)[C@@H](O)[C@@H]1O	class 0
38) Cc1ncc([N+](=O)[O-])n1CCO	class 0
39) Cc1c(N(C)CS(=O)(=O)O)c(=O)n(-c2ccccc2)n1C	class 0
40) CCNc1nc(Cl)nc(NC(C)C)n1	class 0

* * *

assay: chemical genetic growth profiling, strain panel (AID 1159580); details: S. cerevisiae deletion strains, growth OD, locus YDR069C, strain doa4, stronger effect = lower value
Among all 5,500 compounds or so, about 2,000 (36%) were called active. Roughly 18% stayed inconclusive and do not appear here. Some of the results follow.
Consider the following molecules and their measured normalized growth readings.
readout_type: normalized growth

1. CN1Cc2c(N)cccc2C(c2ccccc2)C1 (stereo unspecified)	1.02
2. O=C1OC(=O)C2C3CCC(O3)C12 (stereo unspecified)	1.01
3. C[C@]12CCC3C(CC[C@H]4C[C@@H](O)CC[C@]34C)C1CCC2=O (stereo partly specified)	0.979
4. CCCCC/C=C\C/C=C\C/C=C\C/C=C\CCCC(=O)O	0.993
5. COc1ccc2c(=O)c(-c3cc4c(cc3OC)OCO4)coc2c1	1.02
6. C[N+]1(C)C2CC[C@H]1CC(OC(=O)C(O)c1ccccc1)C2 (stereo partly specified)	1.02
7. Nc1ncnc2c1ncn2[C@@H]1O[C@H](CO)[C@@H](O)[C@@H]1O	1.01
8. CC1(C)C=Cc2c(cc3occ(-c4ccc5c(c4)OCO5)c(=O)c3c2O)O1	0.811
9. CC(C)=CCc1c(O)cc2occ(-c3ccc4c(c3)OCO4)c(=O)c2c1O	0.957
10. CCCc1nc(C(C)(C)O)c(C(=O)OCc2oc(=O)oc2C)n1Cc1ccc(-c2ccccc2-c2nn[nH]n2)cc1	0.956
11. COc1cc2c(cc1-c1coc3c4c(c(OC)cc3c1=O)OC(C)(C)C=C4)OCO2	1.04

* * *

assay: chemical genetic growth profiling, strain panel (AID 1159580);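 further: tested at 20 µM; growth read once vehicle control cultures reached saturation at 30 °C; 1 = growth at the plate median or of vehicle wells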; conditions: S. cerevisiae deletion strains, growth OD, locus YDR150W, strain NUM1, stronger effect = lower value
Screen size: about 5,500 compounds; about 2,000 (36%) were called active. Another 18% or so got no clear call; they are omitted. The list shows a part of the results.
The label is 1 for normalized growth below 1 and -1 for normalized growth equal to or exceeding 1.

1. COc1cccc(CC(=O)NN)c1	-1
2. COC(=O)c1c(OC)ccc(N=CNO)c1OC	1
3. CCCc1ccc(OC)cc1NC(C)=O	1
4. Cc1ccc(C(=O)NNC(=O)c2ccncc2)c(C)c1	1
5. C=C(C)c1cc2cc(C(C)=O)c(O)cc2o1	1

* * *

experiment: chemical genetic growth profiling, strain panel (AID 1159580);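 further: tested at 20 µM; growth read once vehicle control cultures reached saturation at 30 °C; 1 = growth at the plate median or of vehicle wells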; conditions: S. cerevisiae deletion strains, growth OD, locus YDL134C, strain PPH21, stronger effect = lower value
The whole screen tested about 5,500 compounds, of which about 2,000 (36%) were called active. Inconclusive results (about 18%) are left out. The list shows a part of the results.
Consider the following compounds and their measured normalized growth readings.
readout_type: normalized growth

1. O=c1[nH]c2ccccc2n1C1CCN(CCCC(c2ccc(F)cc2)c2ccc(F)cc2)CC1	0.972
2. CC(=O)O[C@@H]1CC2C(C)(C)C(=O)[C@@H]3O[C@@H]3[C@]2(C)C2CC[C@]3(C)C(=CC(=O)O[C@H]3c3ccoc3)[C@@]21C (stereo not given in full)	0.988
3. C[C@]12C=CC(=O)C=C1CCC1C2CC[C@]2(C)C(=O)CCC12 (stereo not given in full)	1.01
4. CC(=O)c1csc([N+](=O)[O-])c1	1
5. CC(=O)CSc1nsc(SCC(C)=O)c1C#N	1.01

* * *

experiment: chemical genetic growth profiling, strain panel (AID 1159580);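 further: tested at 20 µM; growth read once vehicle control cultures reached saturation at 30 °C; 1 = growth at the plate median or of vehicle wells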; details: S. cerevisiae deletion strains, growth OD, locus YNL224C, strain SQS1, stronger effect = lower value
Hit rate of the full screen: of about 5,500 compounds, about 2,000 (36%) were called active. About 18% were inconclusive and are not listed. Some of the results follow.
readout_type: normalized growth

1) CCCCC/C=C\C/C=C\C/C=C\C/C=C\CCCC(=O)NCC(=O)O	0.979
2) CCCCCCC/C=C\CCCCCCCCC(=O)O	1.01
3) NCCNC(=O)c1ncsc1-c1cccc(F)c1	0.996
4) C(=C\c1ccccc1)/CN1CCN(C(c2ccccc2)c2ccccc2)CC1	1.02
5) NCCS	1
6) COc1ccccc1CNCCCCCCNCCCCCCCCNCCCCCCNCc1ccccc1OC	1.03
7) COc1ccc(-c2ccc(N)[n+](CCCC(=O)O)n2)cc1	1.01
8) CN1Cc2c(N)cccc2C(c2ccccc2)C1 (stereo unspecified)	0.998
9) S=C(S)N1CCCC1	0.966
10) Oc1ccc(C2CNCc3sccc32)cc1O (stereo unspecified)	1
11) O=c1ccc2ccc(O)c(O)c2o1	0.99

FYI, the data here is from PubChem BioAssay AID1159580.
